Item-by-item account of Vd
test.method.notes: Volume of distribution at steady state in ICR mouse at 100 mg/kg, iv measured upto 24 hrs by LC-MS/MS analysis
Type: ADME, organism-based
condition.label: ICR, in vivo, read-out: Vdss
Value expressed in L/kg; do not type the unit.

>  <record.smiles>
CC(C)=CCC/C(C)=C/CC/C(C)=C/CC[C@]1(C)CCc2cc(OCCO)cc(C)c2O1

>  <unit.label>
L/kg

>  <Vd>
0.351

$$$$

Per the record, CC(C)=CCC/C(C)=C/CC/C(C)=C/CC[C@]1(C)CCc2cc(O)cc(C)c2O1 has Vd of 0.437
